I'd appreciate it if you could supply IC50 values for the items below.
System: EcFtsZ (Escherichia coli, UniProt P0A9A6)
Construct: made in house; host or cells: E. coli BL21 (DE3)
Sequence (P0A9A6 whole entry): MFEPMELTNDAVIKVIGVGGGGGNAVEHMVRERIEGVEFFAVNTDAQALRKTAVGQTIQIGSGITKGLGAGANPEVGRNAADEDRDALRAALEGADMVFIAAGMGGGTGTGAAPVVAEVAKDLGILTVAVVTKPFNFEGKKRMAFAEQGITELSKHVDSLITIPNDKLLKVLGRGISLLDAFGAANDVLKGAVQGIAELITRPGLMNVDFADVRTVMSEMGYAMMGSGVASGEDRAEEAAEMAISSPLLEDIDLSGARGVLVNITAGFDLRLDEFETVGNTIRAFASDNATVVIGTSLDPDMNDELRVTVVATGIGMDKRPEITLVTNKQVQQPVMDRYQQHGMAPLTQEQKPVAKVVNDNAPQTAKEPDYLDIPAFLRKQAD
Procedure text: GTP induced EcFtsZ polymerization by light scattering (PK/PEP GTP regeneration system)
Type: biochemical
Run conditions: calculated from the EcFtsZ polymerization inhibition by the compounds; read-out: IFP (inhibition of EcFtsZ polymerization) expressed as IC50
// return numeric value only (unit: µM, not printed)

IC50 of O=C(c1ccsc1)c1cc(O)c2ccccc2c1O on EcFtsZ (Escherichia coli, UniProt P0A9A6)?
44

IC50 of O=C(c1ccco1)c1cc(O)c2ccccc2c1O on EcFtsZ (Escherichia coli, UniProt P0A9A6)?
39

IC50 of O=C(c1cccs1)c1cc(O)c2ccccc2c1O on EcFtsZ (Escherichia coli, UniProt P0A9A6)?
100

IC50 of COc1cc(C(=O)c2cc(O)c3ccccc3c2O)cc(OC)c1OC on EcFtsZ (Escherichia coli, UniProt P0A9A6)?
81.5

Values from paper PMC6582257
